Provenance of the data: patent US20170253607A1

- measurement_description: Evaluation of total body clearance (CLtot), intravenous administration
- Format: in vivo, Sprague-Dawley (SD)
- condition_details: rat (SD), intravenous administration 0.5-10 mg/kg; CLtot = dose/AUC
In this section, each of the compounds is paired with its reported rat_CLt.
Form entry: enter the amount, then its unit.

COC(=O)NC(C(=O)NC(Cc1ccc(-c2sc3c(c2C(=O)O)CC(C)(C)CC3)cc1)C(O)CC(Cc1ccccc1F)C(=O)NC1c2cc(F)cc(Cl)c2OCC1O)C(C)(C)C (stereo not drawn)    0.0436 mL/min/kg
COc1ccc(S(=O)(=O)N(CC(C)C)CC(O)C(Cc2ccc(NCc3ccc(F)cc3-c3sc4c(c3C(=O)O)CC(C)(C)CC4)cc2)NC(=O)OC2COC3(C)OCCC23)cc1 (stereo not drawn)    2.12 mL/min/kg

Would you kindly look at the next entry?
Task: GET /values?readout=rat_CLt&item= COc1ccc(S(=O)(=O)N(CC(C)C)CC(O)C(Cc2ccc(NCc3cc(-n4ccccc4=O)ccc3-c3sc4c(c3C(=O)O)CC(C)(C)CC4)cc2)NC(=O)OC2COC3(C)OCCC23)cc1 (stereo not drawn)
Result: 1.5 mL/min/kg

----------
Measured rat_CLt of individual entries
- measurement_description: Evaluation of total body clearance (CLtot), intravenous administration
- Format: in vivo, Sprague-Dawley (SD)
- condition_details: rat (SD), intravenous administration 0.5-10 mg/kg; CLtot = dose/AUC
Value expressed in mL/min/kg; do not type the unit.

Worked cases, answers included:
CCN(Cc1ccccc1-c1sc2c(c1C(=O)O)CC(C)(C)CC2)c1ccc(CC(NC(=O)OC2COC3(C)OCCC23)C(O)CN(CC(C)C)S(=O)(=O)c2ccc(OC)cc2)cc1 (centres unmarked) [Compound I-352]    3.26
COc1ccc(S(=O)(=O)N(CC(C)C)CC(O)C(Cc2ccc(N(C)CC3=C(c4sc5c(c4C(=O)O)CC(C)(C)CC5)CCC3)cc2)NC(=O)OC2COC3(C)OCCC23)cc1 (centres unmarked) [Compound I-347]    5.18
COc1ccc(S(=O)(=O)N(CC(C)C)CC(O)C(Cc2ccc(NCc3cc(C)ccc3-c3sc4c(c3C(=O)O)CC(C)(C)CC4)cc2)NC(=O)OC2COC3(C)OCCC23)cc1 (centres unmarked) [Compound I-545]    1.15
CC(C)CN(CC(O)C(Cc1ccc(OCc2ccccc2-c2sc3c(c2C(=O)O)CC(C)(C)CC3)cc1)NC(=O)OC1COC2(C)OCCC12)S(=O)(=O)c1ccc2nc(O)sc2c1 (centres unmarked) [Compound I-131]    2.27

Query compound follows.
Task: I have this compound here, CC1(C)CCc2sc(-c3ccccc3CNc3ccc(CC(NC(=O)OC4COC5(C)OCCC45)C(O)CN(CC4CCCC4)S(=O)(=O)c4ccc5ncsc5c4)cc3)c(C(=O)O)c2C1 (centres unmarked) [Compound I-513] , and I need its recorded rat_CLt.
Result: 3.23

----------
Let's look at some compounds and their measured IC50.
- tested_target: HIV-1 PR (Human immunodeficiency virus type 1 group M subtype B)
- measurement_description: HIV-protease inhibitory activity assay (FRET peptide substrate)
- condition_details: Test Example 1
- Protocol: Test Example 1: HIV-Protease Inhibitory Activity Assay The HIV-1 PR assay was performed by using a FRET (Fluorescence Resonance Energy Transfer) peptide substrate (AnaSpec, Inc., Fremont, Calif.). Initially in the intact FRET peptide, the fluorescence of HiLyte Fluor 488 is quenched by QXL 520. Upon substrate cleavage by PR, the fluorescence is recovered and can be monitored. […] Background fluorescence intensity was measured and let it stand for another 15 minutes at room temperature. […]
Give just the numeric value; nM need not be written.

Here are 2 compounds together with their reported answers.
COc1ccc(S(=O)(=O)N(CC(C)C)C[C@@H](O)[C@H](Cc2ccc(OC(C)(C)C(=O)Nc3sc4c(c3C(=O)O)CC(C)(C)CC4)cc2)NC(=O)O[C@H]2CO[C@@]3(C)OCC[C@@H]23)cc1    2.31
COc1ccc(S(=O)(=O)N(CC(C)C)CC(O)C(Cc2ccc(NCc3ccc(C(=O)NCc4ccc(F)cc4)cc3-c3sc4c(c3C(=O)O)CC(C)(C)CC4)cc2)NC(=O)OC2COC3(C)OCCC23)cc1 (stereo not drawn)    3.72

Task: Please look up its IC50: COc1ccc(S(=O)(=O)N(CC(C)C)CC(O)C(Cc2ccc(OCC3CCCN(c4ccc(C#N)cc4-c4sc5c(c4C(=O)O)CC(C)(C)CC5)C3)cc2)NC(=O)OC2COC3(C)OCCC23)cc1 (stereo not drawn) [Compound I-328]
Result: 12.8
